B1: mRNA-splicing (parent)
chain: GAUCCAGAUCUAACUUGGGGUGGCUUUGUCUUCUUCUUUUGCCAAUUCCACUAAUUGUUUGGG

Variants of: B1
Assay: exon inclusion enrichment score (log2 ratio to wild type); higher = more inclusion; FAS exon 6 minigene, HEK293
Binary call on exon inclusion enrichment score: YES from -0.3 upward, NO beneath that.

alteration | answerLabel
U40G | YES
A8C | YES
A50U | NO
A50G | YES
A2C | NO
